B1: KLHL12 (parent)
chain: SMTTPRCYVGATVLRGRLYAIAGY

- Variants of: B1
- procedure details: protein stability index of a GFP-peptide fusion (GPS, HEK-293T) (PSI 1-6); higher = more stable;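 also: lentivirally expressed fusions sorted by FACS into six bins by GFP to DsRed ratio, PSI derived from sequencing read proportions per bin multiplied by bin number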
- experimental conditions: c terminus: a fixed tail appended
metric name: protein stability index
The response must contain the number and no unit.

Examples with answers:
sequence variant	protein stability index
G10N	1.95
R6F	2.04
V13K	1.96
Y19F	2.02
L18N	2
A11Y	2.99
R6P	1.83
G23Q	3.57

Report measured protein stability index; entry is `M2I`
1.65

Return value of protein stability index for input `G10D` , no commentary.
1.1

Could you please provide reported protein stability index for `T3E` ? Thanks!
1.65

Output measured protein stability index for this item: `C7D`
2.41

Give the reported value of protein stability index for this record: `G10F`
1.36

Annotate the variant `A11T` with its measured protein stability index.
1.49

Return protein stability index for the following variant: `V9W`
2.17

Give protein stability index for the following variant: `C7P`
1.06

Identify protein stability index associated with the variant `G16S`
2.46

Report measured protein stability index; entry is `R17T`
1.92

Determine from records and report protein stability index for `G16Y`
2.42

Identify measured protein stability index associated with `M2S`
3.02

Identify measured protein stability index corresponding to `S1P`
3.62

Provide one value: measured protein stability index of `T3A`
2.97

Specify reported protein stability index for the variant shown: `A20N`
1.72
